- System: Cryptococcus neoformans
- Protocol summary: Antifungal activity against Cryptococcus neoformans Cr-1 strain
- Type: functional
Define the label as Met when MIC is strictly less than 2 µg/mL and as Not met in all remaining cases.

[[record]]
molecule = "IC#CCn1ccnn1"
discrete_label = "Met"

[[record]]
molecule = "CCCc1nnnn1CC#CI"
discrete_label = "Not met"

[[record]]
molecule = "IC(I)=C(I)Cn1nnnc1C1CC1"
discrete_label = "Not met"

[[record]]
molecule = "Cc1ccc(-c2nnn(CC(I)=C(I)I)n2)cc1"
discrete_label = "Not met"

[[record]]
molecule = "IC#CCn1cncn1"
discrete_label = "Met"


Moving on to another molecule below.
// query Hello, is MIC of the following molecule strictly smaller than 2 µg/mL? `IC#CCn1cccn1`
// result Met

----------
- Tested on: Trichophyton benhamiae
- Protocol summary: Antifungal activity towards Trichophyton mentagrophytes 530324 strain
- Format: functional, Arthroderma benhamiae
// returns -1 unless MIC is strictly below 0.8 µg/mL, in which case 1

[[record]]
smiles_text = "O=[N+]([O-])c1ccn(CC(I)=C(I)I)c1"
discrete_label = 1

[[record]]
smiles_text = "IC#CCn1nnnc1C1CC1"
discrete_label = -1

[[record]]
smiles_text = "CC(C)(C)c1nnn(CC(I)=C(I)I)n1"
discrete_label = 1


// query I wonder whether `CCCCCCCc1nnnn1CC#CI` has MIC below 0.8 µg/mL. Can you tell?
// result 1

// query Determine whether this molecule shows MIC lower than 0.8 µg/mL (ties excluded): `CC(C)(C)c1nnnn1CC#CI`
// result -1

// query Quick check: MIC of `CCOC(=O)c1cn(CC(I)=C(I)I)c(Cl)c1Cl` under 0.8 µg/mL?
// result -1

// query Could you please tell me whether MIC recorded for `CCOCCc1nnnn1CC(I)=C(I)I` is less than 0.8 µg/mL?
// result 1

// query Hi there! Is MIC for `CCOCCc1nnn(CC(I)=C(I)I)n1` below 0.8 µg/mL, do you know?
// result 1

// query Please state whether MIC is below 0.8 µg/mL for `IC(I)=C(I)Cn1nnc(C2CC2)n1`
// result 1

// query Identify whether the molecule `O=[N+]([O-])c1ccn(CC#CI)c1` records MIC below 0.8 µg/mL.
// result 1

----------
- Tested on: Trichophyton benhamiae
- Protocol summary: Antifungal activity towards Trichophyton mentagrophytes 530324 strain
- Assay type: functional, Arthroderma benhamiae
# reported MIC; entries follow

Worked examples, 3 molecules total:
[[record]]
smiles_text = "CCCCCCCc1nnn(CC(I)=C(I)I)n1"
measurement_name = "MIC"
experimental_value = "0.78 µg/mL"

[[record]]
smiles_text = "O=[N+]([O-])c1cn(CC#CI)cn1"
measurement_name = "MIC"
experimental_value = "0.2 µg/mL"

[[record]]
smiles_text = "IC(I)=C(I)Cn1nccn1"
measurement_name = "MIC"
experimental_value = "0.2 µg/mL"


// query Tell me the measured MIC of `COC(=O)c1cc([N+](=O)[O-])cn1CC(I)=C(I)I` , please.
// result 0.39 µg/mL

// query Which MIC reading was recorded for the molecule `O=[N+]([O-])c1c(Cl)c(Cl)n(CC#CI)c1Cc1cc(Cl)cc(Cl)c1O` ?
// result 3.13 µg/mL

// query Recorded MIC for `NC(=O)c1ccc(-c2nnn(CC#CI)n2)cc1` , please?
// result 6.25 µg/mL

// query Item `IC#CCn1nnc(Cc2ccccc2)n1` has what recorded MIC?
// result 0.1 µg/mL

// query Which MIC value belongs to `Clc1ccc(-c2nnnn2CC#CI)cc1` ?
// result 0.2 µg/mL
